Listed here are compounds together with their documented log10(EC50).
Tested on: KU812 cell line
procedure.summary: Antileukemic activity against human KU812 cell line assessed as inhibition of cell growth incubated for 48 hrs by MTT assay
Format: functional, cell-based
experimental.parameters: KU812, 48 h
property.name: log10(EC50) (log10 of the value in µM)

query.smiles: CC1(C)CCN(CCOc2ccc3[nH]ccc3c2)c2ccc(-c3cnccn3)cc21
assay.target: KU812 cell line
recorded.value: 1.68

query.smiles: CC1(C)CCN(CCOc2ccc3[nH]ccc3c2)c2cccc(-c3cnc(Cl)nc3)c21
assay.target: KU812 cell line
recorded.value: 0.83

query.smiles: CC1(C)CCN(CCOc2ccc3[nH]ccc3c2)c2ccc(-c3cnc(N)nc3)cc21
assay.target: KU812 cell line
recorded.value: 0.36

query.smiles: CC1(C)CCN(CCOc2ccc3[nH]ccc3c2)c2cccc(-c3cnc(C#N)nc3)c21
assay.target: KU812 cell line
recorded.value: 0.67

query.smiles: CC1(C)CCN(CCOc2ccc3[nH]ccc3c2)c2cccc(-c3cnc(N)nc3)c21
assay.target: KU812 cell line
recorded.value: -0.22

query.smiles: CC1(C)CCN(CCOc2ccc3[nH]ccc3c2)c2ccc(-c3ccnnc3)cc21
assay.target: KU812 cell line
recorded.value: 1.65

---

Tested on: MV4-11
procedure.summary: Antileukemic activity against human MV4-11 cell line assessed as inhibition of cell growth incubated for 48 hrs by MTT assay
Format: functional, cell-based
experimental.parameters: MV4-11, 48 h
pEC50: −log10 of the molar value.
property.name: pEC50

compound: CC1(C)CCN(CCOc2ccc3[nH]ccc3c2)c2cc(Cc3cccnc3)ccc21
property.name: pEC50
recorded.value: 4.69

compound: O=c1[nH]c2ccccc2n1C1CCN(CCCC(c2ccc(F)cc2)c2ccc(F)cc2)CC1 [PIMOZIDE]
property.name: pEC50
recorded.value: 5.49

compound: CC1(C)CCN(CCOc2ccc3[nH]ccc3c2)c2ccc(-c3cnc(N)nc3)cc21
property.name: pEC50
recorded.value: 6.40

compound: CC1(C)CCN(CCOc2ccc3[nH]ccc3c2)c2cccc(-c3cncnc3)c21
property.name: pEC50
recorded.value: 4.28

compound: CC1(C)CCN(CCOc2ccc3[nH]ccc3c2)c2ccc(Cc3ccccn3)cc21
property.name: pEC50
recorded.value: 5.11

compound: CC1(C)CCN(CCOc2ccc3[nH]ccc3c2)c2cccc(Cc3ccccn3)c21
property.name: pEC50
recorded.value: 4.91

compound: CC1(C)CCN(CCOc2ccc3[nH]ccc3c2)c2ccc(Cc3cccnc3)cc21
property.name: pEC50
recorded.value: 5.31

compound: CC1(C)CCN(CCOc2ccc3[nH]ccc3c2)c2ccc(-c3cncnc3)cc21
property.name: pEC50
recorded.value: 5.38

compound: CC1(C)CCN(CCOc2ccc3[nH]ccc3c2)c2ccc(-c3cnccn3)cc21
property.name: pEC50
recorded.value: 5.11

compound: CC1(C)CCN(CCOc2ccc3[nH]ccc3c2)c2ccc(Cc3ccncc3)cc21
property.name: pEC50
recorded.value: 4.59

---

procedure.summary: Cytotoxicity against Bone marrow cell (unknown origin) assessed as cell viability incubated for 48 hrs by MTT assay
Format: toxicity, cell-based
experimental.parameters: bone marrow cells (unknown origin)
Let's look at some compounds and their measured EC50 at 48 h.

compound: CC1(C)CCN(CCOc2ccc3[nH]ccc3c2)c2ccc(-c3cccnc3)cc21
EC50 at 48 h: 57.6 µM
//
compound: CC1(C)CCN(CCOc2ccc3[nH]ccc3c2)c2cccc(-c3cnc(N)nc3)c21
EC50 at 48 h: 12 µM
//
compound: CC(C)(C)c1cc(CN(C(=O)CN(Cc2ccc(Cl)cc2)S(=O)(=O)c2c(F)c(F)c(F)c(F)c2F)c2ccc(C(=O)O)cc2)cc(C(C)(C)C)c1
EC50 at 48 h: 18.1 µM
//
compound: O=c1[nH]c2ccccc2n1C1CCN(CCCC(c2ccc(F)cc2)c2ccc(F)cc2)CC1 [PIMOZIDE]
EC50 at 48 h: 18.2 µM
//
compound: CC1(C)CCN(CCOc2ccc3[nH]ccc3c2)c2ccc(-c3cnc(N)nc3)cc21
EC50 at 48 h: 14.5 µM

---

Tested on: MV4-11
procedure.summary: Antileukemic activity against human MV4-11 cell line assessed as inhibition of cell growth incubated for 48 hrs by MTT assay
Type: functional, cell-based
experimental.parameters: MV4-11, 48 h
pEC50: −log10 of the molar value.
property.name: pEC50

query.smiles: CC1(C)CCN(CCOc2ccc3[nH]ccc3c2)c2cccc(-c3cccnc3)c21
recorded.value: 5.23
//
query.smiles: CC1(C)CCN(CCOc2ccc3[nH]ccc3c2)c2cccc(-c3cnc(N)cn3)c21
recorded.value: 4.84
//
query.smiles: CC1(C)CCN(CCOc2ccc3[nH]ccc3c2)c2cccc(-c3cnc(C#N)nc3)c21
recorded.value: 5.29
//
query.smiles: CC1(C)CCN(CCOc2ccc3[nH]ccc3c2)c2ccc(-c3cccnc3)cc21
recorded.value: 5.44
//
query.smiles: CC(C)(C)c1cc(CN(C(=O)CN(Cc2ccc(Cl)cc2)S(=O)(=O)c2c(F)c(F)c(F)c(F)c2F)c2ccc(C(=O)O)cc2)cc(C(C)(C)C)c1
recorded.value: 5.59
//
query.smiles: CC1(C)CCN(CCOc2ccc3[nH]ccc3c2)c2ccc(-c3cnc(Cl)nc3)cc21
recorded.value: 5.62
//
query.smiles: CC1(C)CCN(CCOc2ccc3[nH]ccc3c2)c2cc(Cc3ccncc3)ccc21
recorded.value: 4.84
//
query.smiles: CC1(C)CCN(CCOc2ccc3[nH]ccc3c2)c2cccc(-c3ccnnc3)c21
recorded.value: 4.85
//
query.smiles: CC1(C)CCN(CCOc2ccc3[nH]ccc3c2)c2ccc(-c3ccnnc3)cc21
recorded.value: 4.80

---

procedure.summary: Cytotoxicity against human HS-27A assessed as cell viability incubated for 48 hrs by MTT assay
Assay type: toxicity, cell-based
experimental.parameters: HS-27A cells

molecule: CC1(C)CCN(CCOc2ccc3[nH]ccc3c2)c2cccc(-c3cnc(N)nc3)c21
EC50 at 48 h / µM: 44.1
//
molecule: CC1(C)CCN(CCOc2ccc3[nH]ccc3c2)c2ccc(-c3cnc(N)nc3)cc21
EC50 at 48 h / µM: 43.9
//
molecule: O=c1[nH]c2ccccc2n1C1CCN(CCCC(c2ccc(F)cc2)c2ccc(F)cc2)CC1 [PIMOZIDE]
EC50 at 48 h / µM: 57.5
//
molecule: CC(C)(C)c1cc(CN(C(=O)CN(Cc2ccc(Cl)cc2)S(=O)(=O)c2c(F)c(F)c(F)c(F)c2F)c2ccc(C(=O)O)cc2)cc(C(C)(C)C)c1
EC50 at 48 h / µM: 27.8
//
molecule: CC1(C)CCN(CCOc2ccc3[nH]ccc3c2)c2ccc(-c3cccnc3)cc21
EC50 at 48 h / µM: 63.3

---

# reported pEC50; entries follow
Tested on: MV4-11
procedure.summary: Antileukemic activity against human MV4-11 cell line assessed as inhibition of cell growth incubated for 48 hrs by MTT assay
Format: functional, cell-based
experimental.parameters: MV4-11, 48 h
pEC50: −log10 of the molar value.
property.name: pEC50

query.smiles: CC1(C)CCN(CCOc2ccc3[nH]ccc3c2)c2cc(Cc3ccccn3)ccc21
property.name: pEC50
recorded.value: 4.47
//
query.smiles: CC1(C)CCN(CCOc2ccc3[nH]ccc3c2)c2cccc(-c3cnc(Cl)nc3)c21
property.name: pEC50
recorded.value: 5.05
//
query.smiles: CC1(C)CCN(CCOc2ccc3[nH]ccc3c2)c2cccc(-c3cnccn3)c21
property.name: pEC50
recorded.value: 4.82
//
query.smiles: CC1(C)CCN(CCOc2ccc3[nH]ccc3c2)c2ccc(-c3cnc(C#N)nc3)cc21
property.name: pEC50
recorded.value: 5.46
//
query.smiles: CC1(C)CCN(CCOc2ccc3[nH]ccc3c2)c2cccc(-c3ccncc3)c21
property.name: pEC50
recorded.value: 5.55
//
query.smiles: CC1(C)CCN(CCOc2ccc3[nH]ccc3c2)c2cccc(-c3cnc(N)nc3)c21
property.name: pEC50
recorded.value: 6.52
//
query.smiles: CC1(C)CCN(CCOc2ccc3[nH]ccc3c2)c2ccc(-c3cnc(N)cn3)cc21
property.name: pEC50
recorded.value: 4.86
//
query.smiles: CC1(C)CCN(CCOc2ccc3[nH]ccc3c2)c2ccc(-c3ncccn3)cc21
property.name: pEC50
recorded.value: 5.35
//
query.smiles: CC1(C)CCN(CCOc2ccc3[nH]ccc3c2)c2cccc(Cc3ccncc3)c21
property.name: pEC50
recorded.value: 5.89
//
query.smiles: CC1(C)CCN(CCOc2ccc3[nH]ccc3c2)c2cccc(Cc3cccnc3)c21
property.name: pEC50
recorded.value: 5.51

---

Test system: KU812 cell line
procedure.summary: Antileukemic activity against human KU812 cell line assessed as inhibition of cell growth incubated for 48 hrs by MTT assay
Format: functional, cell-based
experimental.parameters: KU812, 48 h
In this section we review reported EC50 values for a set of compounds.
property.name: EC50 (µM)

compound: CC(C)(C)c1cc(CN(C(=O)CN(Cc2ccc(Cl)cc2)S(=O)(=O)c2c(F)c(F)c(F)c(F)c2F)c2ccc(C(=O)O)cc2)cc(C(C)(C)C)c1
property.name: EC50
recorded.value: 4.3
--
compound: CC1(C)CCN(CCOc2ccc3[nH]ccc3c2)c2cccc(-c3ccncc3)c21
property.name: EC50
recorded.value: 2.5
--
compound: CC1(C)CCN(CCOc2ccc3[nH]ccc3c2)c2cccc(-c3ccnnc3)c21
property.name: EC50
recorded.value: 23.5
--
compound: CC1(C)CCN(CCOc2ccc3[nH]ccc3c2)c2ccc(-c3cccnc3)cc21
property.name: EC50
recorded.value: 5.4
--
compound: CC1(C)CCN(CCOc2ccc3[nH]ccc3c2)c2cccc(Cc3ccccn3)c21
property.name: EC50
recorded.value: 74.4
--
compound: CC1(C)CCN(CCOc2ccc3[nH]ccc3c2)c2cccc(Cc3ccncc3)c21
property.name: EC50
recorded.value: 2.7
--
compound: CC1(C)CCN(CCOc2ccc3[nH]ccc3c2)c2cc(Cc3cccnc3)ccc21
property.name: EC50
recorded.value: 25.1
--
compound: CC1(C)CCN(CCOc2ccc3[nH]ccc3c2)c2ccc(Cc3ccncc3)cc21
property.name: EC50
recorded.value: 21.3
--
compound: CC1(C)CCN(CCOc2ccc3[nH]ccc3c2)c2ccc(Cc3ccccn3)cc21
property.name: EC50
recorded.value: 11.5
--
compound: CC1(C)CCN(CCOc2ccc3[nH]ccc3c2)c2ccc(Cc3cccnc3)cc21
property.name: EC50
recorded.value: 5.3
--
compound: CC1(C)CCN(CCOc2ccc3[nH]ccc3c2)c2cccc(Cc3cccnc3)c21
property.name: EC50
recorded.value: 9.3
--
compound: CC1(C)CCN(CCOc2ccc3[nH]ccc3c2)c2ccc(-c3cncnc3)cc21
property.name: EC50
recorded.value: 8.3
--
compound: CC1(C)CCN(CCOc2ccc3[nH]ccc3c2)c2cccc(-c3cnccn3)c21
property.name: EC50
recorded.value: 39.3
--
compound: CC1(C)CCN(CCOc2ccc3[nH]ccc3c2)c2ccc(-c3ncccn3)cc21
property.name: EC50
recorded.value: 29.5
--
compound: CC1(C)CCN(CCOc2ccc3[nH]ccc3c2)c2cccc(-c3cnc(N)cn3)c21
property.name: EC50
recorded.value: 21.2
--
compound: CC1(C)CCN(CCOc2ccc3[nH]ccc3c2)c2cccc(-c3cccnc3)c21
property.name: EC50
recorded.value: 5.8
--
compound: CC1(C)CCN(CCOc2ccc3[nH]ccc3c2)c2ccc(-c3cnc(C#N)nc3)cc21
property.name: EC50
recorded.value: 2.4
--
compound: CC1(C)CCN(CCOc2ccc3[nH]ccc3c2)c2ccc(-c3cnc(Cl)nc3)cc21
property.name: EC50
recorded.value: 1.3
--
compound: CC1(C)CCN(CCOc2ccc3[nH]ccc3c2)c2ccc(-c3cnc(N)cn3)cc21
property.name: EC50
recorded.value: 29.2
--
compound: O=c1[nH]c2ccccc2n1C1CCN(CCCC(c2ccc(F)cc2)c2ccc(F)cc2)CC1 [PIMOZIDE]
property.name: EC50
recorded.value: 2.9

Provenance of the data: ChEMBL document CHEMBL6121010
